biological target: human CD33 A217S (human, UniProt P20138 18-364); assay: alanine scan, flow cytometry, HEK293-T;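 further: antibody binding to each alanine-substituted CD33 mutant expressed transiently in HEK293-T, read as fluorescence minus background, mean of duplicates, relative to wild-type CD33 set as 100%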
Sequence (P20138 18-364 A217S limits assumed): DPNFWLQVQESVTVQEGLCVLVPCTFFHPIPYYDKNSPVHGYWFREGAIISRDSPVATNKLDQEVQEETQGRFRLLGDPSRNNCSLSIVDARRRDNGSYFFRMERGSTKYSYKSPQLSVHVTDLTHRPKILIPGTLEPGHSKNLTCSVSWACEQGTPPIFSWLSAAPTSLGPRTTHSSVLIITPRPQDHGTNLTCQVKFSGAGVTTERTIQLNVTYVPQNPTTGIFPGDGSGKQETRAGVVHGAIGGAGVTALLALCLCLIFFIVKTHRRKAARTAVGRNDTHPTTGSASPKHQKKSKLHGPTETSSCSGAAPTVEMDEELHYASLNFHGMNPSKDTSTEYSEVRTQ
measurement type: Mean % WT Binding (%)
Give your result in % as a bare value.

Please report the recorded Mean % WT Binding for Refmab #3 (antibody, V domains shown, In the alanine scan antibodies were used as IgG or Fab) VH: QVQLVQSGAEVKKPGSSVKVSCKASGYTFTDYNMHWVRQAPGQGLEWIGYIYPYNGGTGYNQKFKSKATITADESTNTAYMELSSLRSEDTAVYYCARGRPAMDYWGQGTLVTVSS VL: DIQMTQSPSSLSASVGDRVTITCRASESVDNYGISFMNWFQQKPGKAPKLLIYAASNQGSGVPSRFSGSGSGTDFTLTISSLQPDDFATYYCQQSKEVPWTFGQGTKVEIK .
148
